# Tested on: HPV-16
# Experiment: qPCR sensitivity against HPV-HNSCC tumor samples diluted among 10 ng normal human DNA
# Test context: Sample # 4
For each record, write down the corresponding Threshold of tumor cell numbers for HPV-16 detection.

INPUT: Please report the recorded Threshold of tumor cell numbers for HPV-16 detection for BR E6-1: HPV-16 E6 region (172-373 bp) primer/probe set, SEQ ID NO: 58-60 (nucleic acid, chemistry not given here) DNA 1: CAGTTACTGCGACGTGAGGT DNA 2: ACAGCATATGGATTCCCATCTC DNA 3: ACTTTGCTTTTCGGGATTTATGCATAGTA .
OUTPUT: 60.0 tumor cells

INPUT: Please report the recorded Threshold of tumor cell numbers for HPV-16 detection for E7: previously designed (historical) HPV-16 E7 primers and Taqman probe, SEQ ID NO: 10-12; part of CLIA test (nucleic acid, Taqman probe, labels not given here, part of CLIA test) DNA 1: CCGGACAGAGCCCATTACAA DNA 2: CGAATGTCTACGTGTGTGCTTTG DNA 3: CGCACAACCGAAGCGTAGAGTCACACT .
OUTPUT: 150.0 tumor cells

Recorded values, source patent US20200399712A1.
